# System: SFV
# assay_protocol: CPE reduction assay, SFV
# condition_label: read-out: EC50 (SFV); VeroE6 cells, MOI 0.025, MTS at 40 hpi; mean ± SD
reported_endpoint: EC50 (µM)

- compound: "Nc1ncnc2c1ncn2C1C(F)=C(CCO)C(O)C1O (stereo not shown) [FHNA, 6′-fluoro-homoneplanocin A]"
  recorded_number: 5.2

====

# Test system: FHNA-resistant CHIKV variants
# Type: cell-based
# condition_label: variant 5; read-out: Mean EC50 ± SD
reported_endpoint: EC50

- molecule: "Nc1ncnc2c1ncn2C1C(F)=C(CCO)C(O)C1O (stereo not shown)"
  reported_endpoint: "EC50"
  result: "1800 nM"

====

# Tested on: rCHIKV mutants
# assay_protocol: microbe, parasite or virus in culture
# Type: cell-based, Chikungunya virus
# condition_label: rCHIKV wt; VeroE6, MOI 0.05; read-out: Mean EC50 ± SD
pEC50: −log10 of the molar value.

- molecule: "Nc1ncnc2c1ncn2C1C(F)=C(CCO)C(O)C1O (stereo not shown)"
  pEC50: 6.68

====

# System: rCHIKV mutants
# assay_protocol: microbe, parasite or virus in culture
# Type: cell-based, Chikungunya virus
# condition_label: rCHIKV nsP2-T675A + nsP3-H342Q (H342Q reverted back to wt); read-out: Mean EC50 ± SD
pEC50: −log10 of the molar value.
reported_endpoint: pEC50

- compound: "Nc1ncnc2c1ncn2C1C(F)=C(CCO)C(O)C1O (stereo not shown)"
  reported_endpoint: "pEC50"
  recorded_number: 5.12

====

# System: VeroE6 cells
# assay_protocol: Cytotoxicity in uninfected cells (MTS/PMS) of the CPE reduction assay
# condition_label: read-out: CC50 (SFV assay), SFV assay format

- compound: "Nc1ncnc2c1ncn2C1C(F)=C(CCO)C(O)C1O (stereo not shown)"
  target_or_test_system: "VeroE6 cells"
  CC50: "> 250 µM"

====

# Test system: rCHIKV mutants
# assay_protocol: microbe, parasite or virus in culture
# Type: cell-based, Chikungunya virus
# condition_label: rCHIKV nsP2-T675A; read-out: Mean EC50 ± SD

- molecule: "Nc1ncnc2c1ncn2C1C(F)=C(CCO)C(O)C1O (stereo not shown)"
  EC50 [µM]: 0.8

====

# Tested on: VeroE6 cells
# assay_protocol: Cytotoxicity in uninfected cells (MTS/PMS) of the CPE reduction assay
# condition_label: read-out: CC50 (CHIKV assay), CHIKV assay format
reported_endpoint: CC50

- compound: "Nc1ncnc2c1ncn2C1C(F)=C(CCO)C(O)C1O (stereo not shown) [FHNA, 6′-fluoro-homoneplanocin A]"
  result: "> 250 µM"

====

# Tested on: FHNA-resistant CHIKV variants
# Format: cell-based
# condition_label: variant 1a; read-out: Mean EC50 ± SD
reported_endpoint: EC50 (µM)

- compound: "Nc1ncnc2c1ncn2C1C(F)=C(CCO)C(O)C1O (stereo not shown)"
  reported_endpoint: "EC50"
  readout_units: "µM"
  recorded_number: 14.1

====

# System: VeroE6 cells
# assay_protocol: Cytotoxicity in uninfected cells (MTS/PMS) of the CPE reduction assay
# condition_label: read-out: CC50 (SINV assay), SINV assay format

- compound: "Nc1ncnc2c1ncn2C1C(F)=C(CCO)C(O)C1O (stereo not shown)"
  CC50: "> 250 µM"

====

# System: FHNA-resistant CHIKV variants
# Assay type: cell-based
# condition_label: CHIKV wt; VeroE6, MOI 0.05; read-out: Mean EC50 ± SD
pEC50: −log10 of the molar value.
reported_endpoint: pEC50

- compound: "Nc1ncnc2c1ncn2C1C(F)=C(CCO)C(O)C1O (stereo not shown) [FHNA, 6′-fluoro-homoneplanocin A]"
  recorded_number: 6.85

Ref: paper PMC7179274
